targetOrTestSystem: T1, human MSLN-FL-his protein (human, UniProt Q13421 296-580)
T1 construct: made in HEK293E cells, purified on nickel column; also called hMSLN-FL-his; human MSLN full-length protein; not shown: His tag
T1 sequence (Q13421 other isoform, or with tags, fused parts or gaps): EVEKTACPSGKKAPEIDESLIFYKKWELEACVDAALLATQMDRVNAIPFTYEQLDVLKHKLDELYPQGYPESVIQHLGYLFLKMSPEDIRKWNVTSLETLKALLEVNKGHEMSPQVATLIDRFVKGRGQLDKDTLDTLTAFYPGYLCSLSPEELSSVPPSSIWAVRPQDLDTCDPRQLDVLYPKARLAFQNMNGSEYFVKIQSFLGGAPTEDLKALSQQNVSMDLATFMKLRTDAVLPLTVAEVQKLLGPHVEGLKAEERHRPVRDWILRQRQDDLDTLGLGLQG
measurementDescription: SPR (Biacore), antibody captured on Protein A chip;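 also: measured at 25 °C, analyte injected 240 s in five twofold dilutions from 200 nM, dissociation up to 600 s, double-referenced, fitted with Langmuir 1:1 model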
observable: pKd
// pKd: -log10(molar conc.)

Example entries and their recorded answers appear below.
Supply pKd value. Item: S009-F1.62.9 (antibody, human IgG1, kappa, V domains shown, human-murine chimeric antibody, human IgG1/kappa constant regions) VH: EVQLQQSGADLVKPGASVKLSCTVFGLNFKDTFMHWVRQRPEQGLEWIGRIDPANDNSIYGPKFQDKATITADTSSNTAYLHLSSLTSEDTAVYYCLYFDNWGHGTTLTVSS VL: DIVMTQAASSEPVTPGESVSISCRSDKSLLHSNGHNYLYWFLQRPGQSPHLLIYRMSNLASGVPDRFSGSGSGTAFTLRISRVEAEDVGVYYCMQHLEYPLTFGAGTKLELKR
6.13

Report measured pKd; entry is S009-F1.35.24 (antibody, human IgG1, kappa, V domains shown, human-murine chimeric antibody, human IgG1/kappa constant regions) VH: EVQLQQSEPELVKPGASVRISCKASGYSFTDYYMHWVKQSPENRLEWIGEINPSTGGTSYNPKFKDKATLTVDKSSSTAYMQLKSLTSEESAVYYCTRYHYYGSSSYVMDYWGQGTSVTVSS VL: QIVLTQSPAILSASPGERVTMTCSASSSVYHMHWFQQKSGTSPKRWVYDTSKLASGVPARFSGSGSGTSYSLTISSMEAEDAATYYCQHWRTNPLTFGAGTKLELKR
9.04

Complete the entry with pKd for S009-F4-127.10 (antibody, human IgG1, kappa, V domains shown, human-murine chimeric antibody, human IgG1/kappa constant regions) VH: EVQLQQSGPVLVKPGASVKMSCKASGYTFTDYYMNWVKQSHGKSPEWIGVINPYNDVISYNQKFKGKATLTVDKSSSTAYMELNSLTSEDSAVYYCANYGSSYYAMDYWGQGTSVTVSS VL: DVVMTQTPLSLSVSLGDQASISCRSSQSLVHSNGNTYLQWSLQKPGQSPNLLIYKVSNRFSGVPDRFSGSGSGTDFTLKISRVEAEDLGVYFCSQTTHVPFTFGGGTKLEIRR
6.77

Please give the documented pKd of S009-F1.59.1 (antibody, human IgG1, kappa, V domains shown, human-murine chimeric antibody, human IgG1/kappa constant regions) VH: EVKLEGSGGGLVQPGGSMMLSCVATGFTFSSYWMNWVRQSPDRGLEWVAEIRLKSNGFAAFYAESVKGRFTISRDDSKSSVYLQMNNLRTEDTGIYYCTYFVHWGQGILVTVSE VL: DIVLTQSPTSLAVSLGQRATISCRTSESVEYFGTILIQWYQQKPGQPPKLLIFGASNVESGVPARFSGSGSGTDFSLNIHPVEEEDIAMYFCQQNRKVPYTFGGGTTLELKR
6.25

The record that follows has no pKd shown yet.
Look up pKd of S009-F2.21.4 (antibody, human IgG1, kappa, V domains shown, human-murine chimeric antibody, human IgG1/kappa constant regions) VH: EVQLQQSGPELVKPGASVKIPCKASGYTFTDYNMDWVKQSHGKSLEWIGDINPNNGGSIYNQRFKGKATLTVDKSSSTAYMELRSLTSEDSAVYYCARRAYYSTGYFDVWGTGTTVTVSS VL: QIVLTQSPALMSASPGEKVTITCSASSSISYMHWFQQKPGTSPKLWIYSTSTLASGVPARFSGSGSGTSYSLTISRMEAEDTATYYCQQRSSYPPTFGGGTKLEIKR and report it.
7.54
